Tested on: KM12 colon
method_notes: NCI tumour cell line growth inhibition, 48 h

>  <compound>
COc1c2c(cc3nc4ccccc4nc13)CC[C@H](NC(C)=O)c1cc(=O)c(SC)ccc1-2

>  <system>
KM12 colon

>  <value_operator>
=

>  <TGI (µM)>
3

$$$$
>  <compound>
CC(C)C(Br)CC/C(CBr)=C(\Cl)CCl (stereo unspecified)

>  <system>
KM12 colon

>  <value_operator>
=

>  <TGI (µM)>
17.9

$$$$
>  <compound>
CCOC(=O)/C=C/C1=C(c2csc3ccccc23)c2ccccc2CC1

>  <system>
KM12 colon

>  <value_operator>
=

>  <TGI (µM)>
56.4

$$$$
>  <compound>
Cc1nn2c(C(=O)N/N=C/c3ccccc3O)c(C)nc2s1

>  <system>
KM12 colon

>  <value_operator>
>

>  <TGI (µM)>
100

$$$$
>  <compound>
CC(=O)c1c(P(=O)(OC(C)C)OC(C)C)nn(-c2ccc([N+](=O)[O-])cc2)c1C

>  <system>
KM12 colon

>  <value_operator>
>

>  <TGI (µM)>
100

$$$$
>  <compound>
COC(=O)C1CC2C=CC1N(C(=O)OCc1ccccc1)C2 (stereo unspecified)

>  <system>
KM12 colon

>  <value_operator>
>

>  <TGI (µM)>
100

$$$$

Hey, just so you know, these numbers are from PubChem BioAssay (NCI).
